- SYSTEM NAME: 5-hydroxytryptamine receptor 2B (Homo sapiens)
- Sequence (P41595 whole entry): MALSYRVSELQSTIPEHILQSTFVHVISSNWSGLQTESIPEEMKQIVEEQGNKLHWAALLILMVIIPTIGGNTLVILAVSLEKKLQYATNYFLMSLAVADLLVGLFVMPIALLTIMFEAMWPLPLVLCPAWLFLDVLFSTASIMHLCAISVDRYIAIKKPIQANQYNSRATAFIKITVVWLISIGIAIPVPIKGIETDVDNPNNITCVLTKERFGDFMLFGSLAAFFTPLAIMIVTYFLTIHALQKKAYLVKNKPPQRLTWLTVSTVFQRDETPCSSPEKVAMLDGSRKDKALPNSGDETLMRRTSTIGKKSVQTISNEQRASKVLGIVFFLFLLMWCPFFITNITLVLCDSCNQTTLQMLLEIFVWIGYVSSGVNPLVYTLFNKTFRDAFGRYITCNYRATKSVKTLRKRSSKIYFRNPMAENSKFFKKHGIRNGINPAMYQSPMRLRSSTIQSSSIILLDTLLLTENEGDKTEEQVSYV
- ASSAY DETAILS: Binding ability of compound at cloned human 5-hydroxytryptamine 2B receptor using [3H]5-HT 2B as radioligand
REPORTED PROPERTY: Ki (nM)
Quick note: give the figure in nM, leave out the unit.

Sample records with Ki:
# STRUCTURE NOTATION, REPORTED PROPERTY, READOUT VALUE
data = [
    ("COc1cc(Br)c2c3c1C[C@H](N)C[C@H]3CO2", "Ki", 11200),
    ("COc1cc(Br)c2c3c1C[C@H](N)C[C@@H]3CO2", "Ki", 263),
]

Switching to the query record.
Please report the recorded Ki for C[C@@H](N)Cc1c2c(c(Br)c3c1OCC3)OCC2 . 1.6

---

- SYSTEM NAME: 5-hydroxytryptamine receptor 2B (Homo sapiens)
- ASSAY DETAILS: Binding ability of compound at cloned human 5-hydroxytryptamine 2B receptor using [3H]rauwolscine as radioligand
REPORTED PROPERTY: Ki (nM)
Quick note: give the figure in nM, leave out the unit.

Please report the recorded Ki for C[C@@H](N)Cc1c2c(c(Br)c3c1OCC3)OCC2 . 1.15

---

- SYSTEM NAME: 5-hydroxytryptamine receptor 2C (Homo sapiens)
- Sequence (P28335 whole entry): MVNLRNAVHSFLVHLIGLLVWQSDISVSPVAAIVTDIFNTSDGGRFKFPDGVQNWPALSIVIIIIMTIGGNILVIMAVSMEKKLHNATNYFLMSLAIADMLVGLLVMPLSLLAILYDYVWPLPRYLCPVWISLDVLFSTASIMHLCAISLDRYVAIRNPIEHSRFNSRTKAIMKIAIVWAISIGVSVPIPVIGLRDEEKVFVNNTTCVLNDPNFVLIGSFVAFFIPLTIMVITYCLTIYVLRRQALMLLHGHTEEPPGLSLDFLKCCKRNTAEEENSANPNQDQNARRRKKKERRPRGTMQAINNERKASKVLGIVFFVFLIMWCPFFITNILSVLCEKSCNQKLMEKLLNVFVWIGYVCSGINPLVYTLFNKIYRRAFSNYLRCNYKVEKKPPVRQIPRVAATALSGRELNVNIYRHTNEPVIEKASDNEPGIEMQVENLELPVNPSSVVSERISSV
- ASSAY DETAILS: Binding ability of compound at cloned human 5-hydroxytryptamine 2C receptor using [125 I]DOI as radioligand
Listing: Ki of selected compounds
Quick note: give the figure in nM, leave out the unit.

# STRUCTURE NOTATION, UOM, READOUT VALUE
records = [
    ("COc1cc(Br)c2c3c1C[C@H](N)C[C@H]3CO2", "nM", 4190),
]

Please report the recorded Ki for COc1cc(Br)c2c3c1C[C@H](N)C[C@@H]3CO2 . 5.96

Also need C[C@@H](N)Cc1c2c(c(Br)c3c1OCC3)OCC2 , thanks. 0.3

---

- SYSTEM NAME: 5-hydroxytryptamine receptor 1A (Rattus norvegicus, UniProt P19327)
- Sequence (P19327 whole entry): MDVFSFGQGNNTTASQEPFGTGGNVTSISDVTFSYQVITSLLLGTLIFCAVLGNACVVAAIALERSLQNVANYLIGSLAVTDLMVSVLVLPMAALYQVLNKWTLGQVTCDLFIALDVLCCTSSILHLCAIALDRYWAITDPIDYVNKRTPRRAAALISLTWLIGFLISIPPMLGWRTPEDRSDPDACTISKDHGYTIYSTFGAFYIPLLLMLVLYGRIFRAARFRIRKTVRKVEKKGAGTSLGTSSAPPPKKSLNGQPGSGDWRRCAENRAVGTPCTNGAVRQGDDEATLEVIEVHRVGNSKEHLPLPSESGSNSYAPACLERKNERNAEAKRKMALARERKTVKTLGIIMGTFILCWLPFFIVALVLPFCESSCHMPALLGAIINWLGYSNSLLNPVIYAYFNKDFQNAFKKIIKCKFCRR
REPORTED PROPERTY: pKi
The meaning of pKi here: minus log10 of the concentration in molar units.

# STRUCTURE NOTATION, SYSTEM NAME, pKi
data = [
    ("COc1ccc2c3c1C[C@H](N(C)C)C[C@@H]3CO2", "5-hydroxytryptamine receptor 1A (Rattus norvegicus, UniProt P19327)", 4.42),
    ("COc1cc(C[C@@H](C)N)c(OC)cc1Br", "5-hydroxytryptamine receptor 1A (Rattus norvegicus, UniProt P19327)", 5.21),
    ("CCCN(CCC)[C@H]1Cc2c(OC)ccc3c2[C@@H](CO3)C1", "5-hydroxytryptamine receptor 1A (Rattus norvegicus, UniProt P19327)", 3.84),
]

Please report the recorded pKi for C[C@@H](N)Cc1c2c(c(Br)c3c1OCC3)OCC2 . 5.37

---

- SYSTEM NAME: 5-hydroxytryptamine receptor 2A (Rattus norvegicus, UniProt P14842)
- Sequence (P14842 whole entry): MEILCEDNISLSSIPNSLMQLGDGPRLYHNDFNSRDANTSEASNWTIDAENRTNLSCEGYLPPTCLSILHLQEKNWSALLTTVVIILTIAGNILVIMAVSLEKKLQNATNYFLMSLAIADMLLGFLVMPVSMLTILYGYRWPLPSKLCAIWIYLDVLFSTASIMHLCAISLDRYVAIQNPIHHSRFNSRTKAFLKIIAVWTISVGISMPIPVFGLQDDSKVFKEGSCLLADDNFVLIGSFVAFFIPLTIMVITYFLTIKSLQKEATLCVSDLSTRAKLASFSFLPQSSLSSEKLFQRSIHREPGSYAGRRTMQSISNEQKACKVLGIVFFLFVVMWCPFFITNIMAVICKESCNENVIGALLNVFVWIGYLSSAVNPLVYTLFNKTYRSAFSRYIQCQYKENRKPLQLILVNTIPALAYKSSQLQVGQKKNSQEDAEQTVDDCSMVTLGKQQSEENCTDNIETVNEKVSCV
REPORTED PROPERTY: pKi
The meaning of pKi here: minus log10 of the concentration in molar units.

Sample records with pKi:
# STRUCTURE NOTATION, pKi
data = [
    ("CCCN(CCC)[C@H]1Cc2c(OC)ccc3c2[C@@H](CO3)C1", 6.19),
    ("C[C@@H](N)Cc1c2c(c(Br)c3c1OCC3)OCC2", 7.74),
    ("COc1ccc2c3c1C[C@H](N(C)C)C[C@@H]3CO2", 6.01),
    ("COc1cc(Br)c2c3c1C[C@H](N)C[C@H]3CO2", 5.41),
]

Please report the recorded pKi for COc1cc(Br)c2c3c1C[C@H](N)C[C@@H]3CO2 . 5.98

---

Listing: K 0.5 of selected compounds
- SYSTEM NAME: Muscarinic acetylcholine receptor M5 (Rattus norvegicus)
- Sequence (whole entry): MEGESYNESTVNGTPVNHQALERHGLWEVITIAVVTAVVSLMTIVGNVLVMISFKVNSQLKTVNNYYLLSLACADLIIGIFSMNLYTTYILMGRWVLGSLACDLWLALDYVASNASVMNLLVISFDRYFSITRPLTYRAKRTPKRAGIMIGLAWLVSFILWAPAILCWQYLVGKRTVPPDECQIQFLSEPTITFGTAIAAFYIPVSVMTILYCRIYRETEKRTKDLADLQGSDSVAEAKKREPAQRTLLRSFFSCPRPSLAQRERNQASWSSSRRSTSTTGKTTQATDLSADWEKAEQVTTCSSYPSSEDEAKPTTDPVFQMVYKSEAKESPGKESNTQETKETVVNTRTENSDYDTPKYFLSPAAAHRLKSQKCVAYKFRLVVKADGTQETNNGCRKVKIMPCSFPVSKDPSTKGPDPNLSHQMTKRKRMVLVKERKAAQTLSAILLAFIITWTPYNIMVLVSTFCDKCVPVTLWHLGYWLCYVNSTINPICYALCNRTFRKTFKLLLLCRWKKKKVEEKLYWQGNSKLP
Quick note: give the figure in nM, leave out the unit.

Sample records with K 0.5:
# COMPOUND, UOM, K 0.5
records = [
    ("COc1cc(Br)c2c3c1C[C@H](N)C[C@@H]3CO2", "nM", 33),
    ("COc1ccc2c3c1C[C@H](N)C[C@@H]3CO2", "nM", 236),
]

Please report the recorded K 0.5 for COc1ccc2c3c1C[C@H](N(C)C)C[C@@H]3CO2 . 1100

Also need CN1[C@@H]2CC[C@H]1C[C@@H](OC(=O)C(CO)c1ccccc1)C2 (some centres undefined) , thanks. 0.7

---

- SYSTEM NAME: Muscarinic acetylcholine receptor M2 (Rattus norvegicus) (UniProt P10980)
- Sequence (P10980 whole entry): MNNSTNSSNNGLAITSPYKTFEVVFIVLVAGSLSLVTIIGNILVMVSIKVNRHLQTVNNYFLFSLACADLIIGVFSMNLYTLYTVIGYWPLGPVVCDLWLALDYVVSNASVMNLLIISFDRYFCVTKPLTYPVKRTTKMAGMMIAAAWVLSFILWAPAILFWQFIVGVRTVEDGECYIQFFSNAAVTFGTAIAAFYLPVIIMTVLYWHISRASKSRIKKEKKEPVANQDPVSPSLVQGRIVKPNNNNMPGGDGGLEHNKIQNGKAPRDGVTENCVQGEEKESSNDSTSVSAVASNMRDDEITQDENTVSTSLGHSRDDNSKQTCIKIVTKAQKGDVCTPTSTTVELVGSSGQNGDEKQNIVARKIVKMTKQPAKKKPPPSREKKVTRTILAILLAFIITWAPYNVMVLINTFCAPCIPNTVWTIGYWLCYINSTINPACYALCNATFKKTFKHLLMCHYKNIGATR
REPORTED PROPERTY: K 0.5 (nM)
Quick note: give the figure in nM, leave out the unit.

# MOLECULE, SYSTEM NAME, K 0.5, nM
rows = [
    ("CN1[C@@H]2CC[C@H]1C[C@@H](OC(=O)C(CO)c1ccccc1)C2 (some centres undefined)", "Muscarinic acetylcholine receptor M2 (Rattus norvegicus) (UniProt P10980)", 1.8),
    ("COc1ccc2c3c1C[C@H](N)C[C@@H]3CO2", "Muscarinic acetylcholine receptor M2 (Rattus norvegicus) (UniProt P10980)", 33400),
]

Value wanted: K 0.5 (Muscarinic acetylcholine receptor M2 (Rattus norvegicus) (UniProt P10980)) of entry COc1ccc2c3c1C[C@H](N(C)C)C[C@@H]3CO2 953

Also need COc1cc(Br)c2c3c1C[C@H](N)C[C@@H]3CO2 , thanks. 41
